Test system: L1210
Assay: Cytotoxicity against mouse L1210 cell line
Assay type: cell-based
Details: Mus musculus, L1210

COMPOUND: CCCc1c2c(c(C)c3c1Oc1ccccc1O3)C(=O)OC2
SYSTEM NAME: L1210
UNIT TEXT: µM
COMPARISON SIGN: >
IC50: 10
--
COMPOUND: CCCCCCCc1c2c(c(C)c3c1Oc1ccccc1O3)C(=O)OC2
SYSTEM NAME: L1210
UNIT TEXT: µM
COMPARISON SIGN: >
IC50: 10
--
COMPOUND: CCCCc1c2c(c(C)c3c1C(=O)OC3)Oc1ccccc1O2
SYSTEM NAME: L1210
UNIT TEXT: µM
COMPARISON SIGN: =
IC50: 2.4
--
COMPOUND: Cc1c2ccncc2c(C)c2c1[nH]c1ccccc12 [ELLIPTECINE]
SYSTEM NAME: L1210
UNIT TEXT: µM
COMPARISON SIGN: =
IC50: 0.19
--
COMPOUND: CCCCCCc1c2c(c(C)c3c1C(=O)SC3)Oc1ccccc1O2
SYSTEM NAME: L1210
UNIT TEXT: µM
COMPARISON SIGN: =
IC50: 19
--
COMPOUND: Cc1c2c(c(C)c3c1Oc1ccccc1O3)C(=O)OC2
SYSTEM NAME: L1210
UNIT TEXT: µM
COMPARISON SIGN: >
IC50: 100

###

System: L1210
Test: Cytotoxicity against mouse L1210 cell line
Format: cell-based
Settings: Mus musculus, L1210
pIC50: −log10 of the molar value.
// reported pIC50 for each item listed

COMPOUND SMILES: Cc1c2c(c(CCCCCC#N)c3c1C(=O)OC3)Oc1ccccc1O2
SYSTEM NAME: L1210
COMPARISON SIGN: <
pIC50: 5.00
//
COMPOUND SMILES: CCCCCCc1c2c(c(CCCCCC)c3c1Oc1ccccc1O3)C(=O)OC2
SYSTEM NAME: L1210
COMPARISON SIGN: <
pIC50: 5.00
//
COMPOUND SMILES: CCCCCCc1c2c(c(C)c3c1C(=O)OC3)Oc1ccccc1O2
SYSTEM NAME: L1210
COMPARISON SIGN: =
pIC50: 5.70
//
COMPOUND SMILES: CNCCCCc1c2c(c(C)c3c1C(=O)OC3)Oc1ccccc1O2
SYSTEM NAME: L1210
COMPARISON SIGN: =
pIC50: 5.62
//
COMPOUND SMILES: CCCCCc1c2c(c(C)c3c1Oc1ccccc1O3)C(=O)OC2
SYSTEM NAME: L1210
COMPARISON SIGN: =
pIC50: 5.14
//
COMPOUND SMILES: CCc1c2c(c(C)c3c1Oc1ccccc1O3)C(=O)OC2
SYSTEM NAME: L1210
COMPARISON SIGN: <
pIC50: 5.00

###

Tested on: L1210
Experiment: Cytotoxicity against mouse L1210 cell line
Assay type: cell-based
Set-up: concentration or dose not given beside the values
Conditions: mouse, l1210

COMPOUND: CCCCCc1c2c(c(C)c3c1C(=O)OC3)Oc1ccc(OC)cc1O2
Activity / %: 78
//
COMPOUND: CCCc1c2c(c(C)c3c1C(=O)OC3)Oc1ccccc1O2
Activity / %: 111
//
COMPOUND: CCCCCCc1c2c(c(C)c3c1Oc1ccccc1O3)C(=O)OC2
Activity / %: 118.3
//
COMPOUND: CCCCCc1c2c(c(C)c3c1Oc1cc(OC)ccc1O3)C(=O)OC2
Activity / %: 70
//
COMPOUND: Cc1c2c(c(CC(C)CC(C)(C)C)c3c1C(=O)OC3)Oc1ccccc1O2 (stereo unspecified)
Activity / %: 70
//
COMPOUND: CCCc1c2c(c(C)c3c1Oc1ccccc1O3)C(=O)OC2
Activity / %: 115
